Tested on: HCT-116
Assay: Cytotoxicity against human HCT116 cells after 24 hrs by SRB assay
Type: cell-based
Settings: hct-116, 24 h
measuredAttribute: LC50 (µM)

smilesEntry	measuredAttribute	cmp	reported
O=C(/C=C/c1cc2ccccc2[nH]c1=O)c1ccc(O)cc1	LC50	=	9.91
O=C(/C=C/c1cc2ccccc2[nH]c1=O)/C=C/c1cc2ccccc2[nH]c1=O	LC50	>	100
COc1ccc(C(=O)/C=C/c2cc3ccccc3[nH]c2=O)cc1	LC50	=	31.6
O=C(/C=C/c1cc2ccccc2[nH]c1=O)c1ccc(Cl)cc1	LC50	=	66.5

###

Attribute: GI50
Test system: COLO 205
Experiment: Cytotoxicity against human COLO205 cells after 24 hrs by SRB assay
Assay type: functional
Settings: COLO 205, 24 h
measuredAttribute: GI50 (µM)

smilesEntry	reported
O=C(/C=C/c1cc2ccccc2[nH]c1=O)c1ccc(Cl)cc1	10.1
COc1ccc(C(=O)/C=C/c2cc3ccccc3[nH]c2=O)cc1	3.66
O=C(/C=C/c1cc2ccccc2[nH]c1=O)/C=C/c1cc2ccccc2[nH]c1=O	2.89
O=C(/C=C/c1cc2ccccc2[nH]c1=O)c1ccc(O)cc1	4.05
